- Subject of test: human CXCR4 (Homo sapiens)
- Construct: expressed in transfected cells; host or cells: HEK-293 cells (stably expressing human macrophage scavenger receptor class A type 1), transduced with human CXCR4 BacMam and Gqi5 BacMam baculoviruses
- Sequence (P61073 whole entry): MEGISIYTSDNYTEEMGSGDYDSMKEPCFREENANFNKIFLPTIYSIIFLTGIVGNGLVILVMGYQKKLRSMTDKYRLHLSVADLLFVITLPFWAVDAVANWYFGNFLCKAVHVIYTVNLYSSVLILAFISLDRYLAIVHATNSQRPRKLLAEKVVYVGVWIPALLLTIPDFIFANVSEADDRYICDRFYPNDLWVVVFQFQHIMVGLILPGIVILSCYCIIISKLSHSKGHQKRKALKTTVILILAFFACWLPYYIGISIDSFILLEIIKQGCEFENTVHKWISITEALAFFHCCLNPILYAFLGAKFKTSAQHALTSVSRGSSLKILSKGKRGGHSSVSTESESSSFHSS
- Assay method text: Functional FLIPR assay (block of SDF-1 alpha induced [Ca2+]i change)
- Assay type: cell-based
- Condition context: HEK-293 cells with human CXCR4 and Gqi5 BacMam; antagonism of SDF-1 alpha; read-out: Functional assay (pIC50) (converted)
Readout name: IC50 (nM)
Only the number, expressed in nM, is required.

CCN1CCN(c2cccc3nc(CN(C)C4CCCc5cccnc54)cn23)CC1 (centres unmarked)
6.92
CC1CN(c2cccc3nc(CN(C)C4CCCc5cccnc54)cn23)CC(C)N1 (centres unmarked)
28.2
CC1CN(c2cccc3nc(CN(C)C4CCCc5cccnc54)cn23)CC(C)N1C (centres unmarked)
18.2

Problem: Any idea what IC50 was measured for CC(C)N1CCN(c2cccc3nc(CN(C(C)C)C4CCCc5cccnc54)cn23)CC1 (centres unmarked) ?
Solution: 3.63

Problem: Any idea what IC50 was measured for CC(C)N1CCN(c2cccc3nc(CN(CC(F)(F)F)C4CCCc5cccnc54)cn23)CC1 (centres unmarked) ?
Solution: 8.91

Problem: Any idea what IC50 was measured for CC(C)N(Cc1cn2c(N3CCN(C)CC3)cccc2n1)C1CCCc2cccnc21 (centres unmarked) ?
Solution: 2

Problem: Any idea what IC50 was measured for CN1CCN(c2cccc3nc(CN(CC(F)(F)F)C4CCCc5cccnc54)cn23)CC1 (centres unmarked) ?
Solution: 4.37

Problem: Any idea what IC50 was measured for CC(C)N1CCN(c2cccc3nc(CN(C)C4CCCc5cccnc54)cn23)CC1 (centres unmarked) ?
Solution: 9.77

Problem: Any idea what IC50 was measured for CN(Cc1cn2c(N3CCN(C(=O)OC(C)(C)C)CC3)cccc2n1)C1CCCc2cccnc21 (centres unmarked) ?
Solution: 363

Problem: Any idea what IC50 was measured for CN(C)Cc1ccc(-c2cccc3nc(CN(C)C4CCCc5cccnc54)cn23)cc1 (centres unmarked) ?
Solution: 38.9

Problem: Any idea what IC50 was measured for CN(Cc1cn2c(N3CCNCC3)cccc2n1)C1CCCc2cccnc21 (centres unmarked) ?
Solution: 6.92

Problem: Any idea what IC50 was measured for CN1CCN(c2cccc3nc(CN(C)C4CCCc5cccnc54)cn23)CC1 (centres unmarked) ?
Solution: 7.94

Problem: Any idea what IC50 was measured for CN(Cc1cn2c(-c3ccncc3)cccc2n1)C1CCCc2cccnc21 (centres unmarked) ?
Solution: 20.4

Problem: Any idea what IC50 was measured for CN(C)CCN(C)c1cccc2nc(CN(C)C3CCCc4cccnc43)cn12 (centres unmarked) ?
Solution: 33.9

Just for reference, patent US20070232615A1 is where these values come from.
